tested on: HCV replicon cells; test: HCV replicon assay (FRET or luciferase readout); format: cell-based; conditions: Table 1
pEC50: −log10 of the molar value.
quantity.kind: pEC50

Input: Entry CNC(=O)c1c(-c2ccc(F)cc2)nc2ccc(C3CC3C(=O)NC3(c4ccccn4)CC3)cn12 (stereo not shown) [drawing 160] needs its pEC50 filled in; supply it.
Output: < 5.00

* * *

I'd appreciate it if you could supply pIC50 values for the items below.
target: HCV NS5B RdRp genotype 1b (Hepatitis C virus genotype 1b, UniProt Q9WMX2); construct: The protein was expressed with an 18 amino acid C-terminal truncation to enhance the solubility; made in house; host or cells: E. coli BL21(DE3), pET21a vector; assay: HCV NS5B RdRp enzyme assay (standard / modified); format: biochemical; conditions: Table 1; HCV NS5B genotype 1b
Sequence (Q9WMX2 2420-2992): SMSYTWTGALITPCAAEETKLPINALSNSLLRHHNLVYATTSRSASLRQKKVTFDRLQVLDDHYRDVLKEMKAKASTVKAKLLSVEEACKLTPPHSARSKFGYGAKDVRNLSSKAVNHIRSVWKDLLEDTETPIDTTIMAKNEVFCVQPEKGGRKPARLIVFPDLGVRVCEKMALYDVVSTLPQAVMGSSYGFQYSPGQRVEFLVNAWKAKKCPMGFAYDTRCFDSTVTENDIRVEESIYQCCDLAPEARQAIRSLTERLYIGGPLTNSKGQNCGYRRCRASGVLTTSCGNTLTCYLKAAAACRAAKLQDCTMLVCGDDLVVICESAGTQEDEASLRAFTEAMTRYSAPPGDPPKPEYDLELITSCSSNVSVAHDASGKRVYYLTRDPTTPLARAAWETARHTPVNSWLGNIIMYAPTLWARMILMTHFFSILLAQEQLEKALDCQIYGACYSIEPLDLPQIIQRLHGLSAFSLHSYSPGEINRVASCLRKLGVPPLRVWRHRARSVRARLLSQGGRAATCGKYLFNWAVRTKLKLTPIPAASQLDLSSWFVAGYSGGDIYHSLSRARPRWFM
pIC50: −log10 of the molar value.

Worked cases, answers included:
{"columns": ["query.smiles", "target.under.test", "pIC50"],
 "data": [
  ["CNC(=O)c1c(-c2ccc(F)cc2)nc2ccc(-c3cc(C(=O)NC4(c5ccccn5)CC4)ccc3C)cn12", "HCV NS5B RdRp genotype 1b (Hepatitis C virus genotype 1b, UniProt Q9WMX2)", "6.60 to 8.70"],
  ["CNC(=O)c1c(-c2ccc(F)cc2)nn2ccc(-c3cc(C(=O)NC4(C(C)C)CC4)c(OC)cc3C)c(F)c12", "HCV NS5B RdRp genotype 1b (Hepatitis C virus genotype 1b, UniProt Q9WMX2)", "6.60 to 8.70"],
  ["CNC(=O)c1c(-c2ccc(F)cc2)nc2ccc(-c3cc(C(=O)NC(C)(C)c4ccccc4)ccc3Cl)cn12", "HCV NS5B RdRp genotype 1b (Hepatitis C virus genotype 1b, UniProt Q9WMX2)", "6.60 to 8.70"],
  ["CNC(=O)c1c(-c2ccccc2)nn2cc(-c3ccccc3CO)ccc12", "HCV NS5B RdRp genotype 1b (Hepatitis C virus genotype 1b, UniProt Q9WMX2)", "< 5.00"],
  ["CNC(=O)c1c(-c2ccc(F)cc2)nn2c(F)cc(-c3cc(C(=O)NC4(c5ccccn5)CC4)ccc3C)cc12", "HCV NS5B RdRp genotype 1b (Hepatitis C virus genotype 1b, UniProt Q9WMX2)", "6.60 to 8.70"]
]}

Please state, for each entry, its recorded pIC50.
1. CNC(=O)c1c(-c2ccc(F)cc2)oc2cnc(-c3cccc(C(=O)NC4(c5ccccn5)CC4)c3)cc12
2. CNC(=O)c1c(-c2ccccc2)nn2cc(-c3ccccc3OC)ccc12
3. CCN(c1cn2nc(-c3ccc(F)cc3)c(C(=O)NC)c2cc1-c1cc(C(=O)NC2(c3ccc(F)cc3)CC2)ccc1C)S(C)(=O)=O
4. CNC(=O)c1c(-c2ccc(F)cc2)nn2ccc(N)cc12
5. CNC(=O)c1c(-c2ccc(F)cc2)nn2cc(NS(C)(=O)=O)c(-c3cccc(C(=O)NC(C)(C)c4ccccc4)c3)cc12

Output:
1. 6.60 to 8.70
2. 5.00 to 6.00
3. 6.60 to 8.70
4. < 5.00
5. 6.60 to 8.70

Please state, for each entry, its recorded pIC50.
1. CNC(=O)c1c(-c2ccc(F)cc2)nn2ccc(-n3ccc(C(=O)NC(C)(C)c4ccccc4)c3)cc12
2. CNC(=O)c1c(-c2ccc(F)cc2)nc2ccc(-c3ccc(-c4ccccc4)c(C(=O)NCC(C)C)c3)cn12

Output:
5.00 to 6.00
< 6.30

Please state, for each entry, its recorded pIC50.
1. CNC(=O)c1c(-c2ccc(F)cc2)nn2cc(N(CC3CC3)S(C)(=O)=O)c(-c3cccc(C(=O)NC(C)(C)c4ccccc4)c3)cc12
2. CNC(=O)c1c2cc(-c3cc(C(=O)NC(C)(C)c4ccccc4)ccc3C)ccc2nn1-c1ccc(F)cc1
3. CNC(=O)c1c(-c2ccc(F)cc2)oc2ncc(-c3cccc(C(=O)NC4(c5ccccc5)CC4)c3)cc12
4. CNC(=O)c1c(-c2ccc(F)cc2)nn2ccc(NC(=O)OC(C)(C)C)cc12
5. CNC(=O)c1c(-c2ccc(F)cc2)nn2ccc(-c3cc(C(=O)NC4(c5cc(C)on5)CC4)c(OC)cc3C)c(F)c12

Output:
["6.60 to 8.70", "6.60 to 8.70", "6.60 to 8.70", "< 5.00", "6.60 to 8.70"]

Input: Entry CNC(=O)c1c(-c2ccc(F)cc2)oc2ccc(-c3cccc(C(=O)NC4(c5ccccn5)CC4)c3)nc12 needs its pIC50 filled in; supply it.
Output: 5.00 to 6.00
